In this section, each of the compounds is paired with its reported pIC50.
experimentalTarget: Dipeptidyl peptidase 9 (Homo sapiens)
Sequence (Q86TI2 whole entry): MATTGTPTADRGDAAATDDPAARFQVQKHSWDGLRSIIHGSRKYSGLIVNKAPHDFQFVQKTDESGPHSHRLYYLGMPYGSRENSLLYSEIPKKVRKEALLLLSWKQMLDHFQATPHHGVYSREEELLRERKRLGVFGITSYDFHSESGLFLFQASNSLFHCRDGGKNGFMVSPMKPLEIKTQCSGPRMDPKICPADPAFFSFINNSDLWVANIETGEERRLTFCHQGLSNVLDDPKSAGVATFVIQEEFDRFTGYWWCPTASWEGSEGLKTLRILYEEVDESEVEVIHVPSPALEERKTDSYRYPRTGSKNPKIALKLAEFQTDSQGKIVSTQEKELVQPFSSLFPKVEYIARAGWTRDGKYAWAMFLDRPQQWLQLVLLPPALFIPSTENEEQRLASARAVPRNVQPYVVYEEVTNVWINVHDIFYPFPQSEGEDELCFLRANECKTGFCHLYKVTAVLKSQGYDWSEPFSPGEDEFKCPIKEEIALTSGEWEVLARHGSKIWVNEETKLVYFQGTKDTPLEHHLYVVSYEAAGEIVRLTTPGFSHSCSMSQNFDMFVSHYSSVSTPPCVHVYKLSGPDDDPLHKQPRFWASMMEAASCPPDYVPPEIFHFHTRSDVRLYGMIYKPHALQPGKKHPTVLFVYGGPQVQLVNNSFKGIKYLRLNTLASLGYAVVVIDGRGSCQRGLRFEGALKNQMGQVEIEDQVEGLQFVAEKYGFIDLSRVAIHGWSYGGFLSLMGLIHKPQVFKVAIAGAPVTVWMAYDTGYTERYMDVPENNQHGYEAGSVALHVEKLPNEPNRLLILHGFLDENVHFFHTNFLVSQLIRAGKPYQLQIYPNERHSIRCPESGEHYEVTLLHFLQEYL
methodDescription: Inhibition of recombinant full-length human N-terminal GST-tagged DPP9 expressed in Sf9 insect cells using Gly-Pro-AMC as substrate measured at 60 secs interval for 20 mins by fluorescence assay
pIC50: −log10 of the molar value.
measuredMetric: pIC50

[
  {
    "smilesCode": "CC#CCn1c(N2CCC[C@@H](N)C2)cc(=O)n(Cc2cc(Br)ccc2C(=O)O)c1=O",
    "experimentalTarget": "Dipeptidyl peptidase 9 (Homo sapiens)",
    "measured": "< 4.00"
  },
  {
    "smilesCode": "CC#CCn1c(N2CCC[C@@H](N)C2)cc(=O)n(Cc2cc(C#N)ccc2C(=O)O)c1=O",
    "experimentalTarget": "Dipeptidyl peptidase 9 (Homo sapiens)",
    "measured": "< 4.00"
  },
  {
    "smilesCode": "CC#CCn1c(N2CCC[C@@H](N)C2)cc(=O)n(Cc2ccccc2C(=O)O)c1=O",
    "experimentalTarget": "Dipeptidyl peptidase 9 (Homo sapiens)",
    "measured": "< 4.00"
  },
  {
    "smilesCode": "CC#CCn1c(N2CCC[C@@H](N)C2)cc(=O)n(Cc2ccc(Cl)cc2C(=O)O)c1=O",
    "experimentalTarget": "Dipeptidyl peptidase 9 (Homo sapiens)",
    "measured": "< 4.00"
  }
]

---

methodDescription: Cytotoxicity against human LO2 cells assessed as cell viability at 100 uM after 48 hrs by MTT assay relative to control
Format: cell-based, L02
measurementContext: read-out: Activity

[
  {
    "smilesCode": "CC#CCn1c(N2CCC[C@@H](N)C2)cc(=O)n(Cc2cc(Br)ccc2C(=O)O)c1=O",
    "readoutUnit": "%",
    "viability at 48 h, 100 µM": 70
  },
  {
    "smilesCode": "CC#CCn1c(N2CCC[C@@H](N)C2)cc(=O)n(Cc2cc(Br)ccc2C(=O)OC)c1=O",
    "readoutUnit": "%",
    "viability at 48 h, 100 µM": 14
  },
  {
    "smilesCode": "CC#CCn1c(N2CCC[C@@H](N)C2)cc(=O)n(Cc2cccc(F)c2C(=O)O)c1=O",
    "readoutUnit": "%",
    "viability at 48 h, 100 µM": 70
  },
  {
    "smilesCode": "CC#CCn1c(N2CCC[C@@H](N)C2)cc(=O)n(Cc2cccc(F)c2C(=O)OC)c1=O",
    "readoutUnit": "%",
    "viability at 48 h, 100 µM": 70
  }
]

---

methodDescription: Cytotoxicity against human LO2 cells assessed as cell viability at 50 uM after 48 hrs by MTT assay relative to control
Assay type: cell-based, L02
measurementContext: read-out: Activity

[
  {
    "smilesCode": "CC#CCn1c(N2CCC[C@@H](N)C2)cc(=O)n(Cc2cccc(F)c2C(=O)O)c1=O",
    "viability at 48 h, 50 µM, %": 90
  },
  {
    "smilesCode": "CC#CCn1c(N2CCC[C@@H](N)C2)cc(=O)n(Cc2cc(Br)ccc2C(=O)O)c1=O",
    "viability at 48 h, 50 µM, %": 90
  },
  {
    "smilesCode": "CC#CCn1c(N2CCC[C@@H](N)C2)cc(=O)n(Cc2cccc(F)c2C(=O)OC)c1=O",
    "viability at 48 h, 50 µM, %": 90
  }
]

These measurements were taken from ChEMBL document CHEMBL4411317.
